Would you mind telling me the reported IC50 of each entry?
Target: H^+ -K^+ ATPase (Sus scrofa)
Construct: Prepared from the fundic-glands of a fresh mucous membrane of a pig stomach
Test: Inhibition against the activity of H^+ -K^+ ATPase
Settings: 40 mM Tris-HCl pH 7.40, 37° C., 30 minutes incubation
Give just the numeric value; nM need not be written.

Please report the measured IC50 for Cc1c(OCCOCc2ccccn2)ccnc1C[S+]([O-])c1nc2ccccc2[nH]1 (stereo not drawn)
1200

Please report the measured IC50 for Cc1c(OCCOCCOCc2ccccc2)ccnc1C[S+]([O-])c1nc2cc(C(F)(F)F)ccc2[nH]1 (stereo not drawn)
630

Please report the measured IC50 for CSCCOc1ccnc(C[S+]([O-])c2nc3ccccc3[nH]2)c1C (stereo not drawn)
2300

Please report the measured IC50 for Cc1c(OCCN2C(=O)CCC2=O)ccnc1C[S+]([O-])c1nc2ccccc2[nH]1 (stereo not drawn)
11000

Please report the measured IC50 for COc1ccc2[nH]c([S+]([O-])Cc3nccc(OCCN4C(=O)CCC4=O)c3C)nc2c1 (stereo not drawn)
10000

Please report the measured IC50 for Cc1c(OCCN2CCCC2=O)ccnc1C[S+]([O-])c1nc2ccccc2[nH]1 (stereo not drawn)
2400

====

Target: H^+ -K^+ ATPase (Sus scrofa, UniProt P19156)
Construct: Prepared from the fundic-glands of a fresh mucous membrane of a pig stomach
Sequence (P19156 2-1034 limits assumed): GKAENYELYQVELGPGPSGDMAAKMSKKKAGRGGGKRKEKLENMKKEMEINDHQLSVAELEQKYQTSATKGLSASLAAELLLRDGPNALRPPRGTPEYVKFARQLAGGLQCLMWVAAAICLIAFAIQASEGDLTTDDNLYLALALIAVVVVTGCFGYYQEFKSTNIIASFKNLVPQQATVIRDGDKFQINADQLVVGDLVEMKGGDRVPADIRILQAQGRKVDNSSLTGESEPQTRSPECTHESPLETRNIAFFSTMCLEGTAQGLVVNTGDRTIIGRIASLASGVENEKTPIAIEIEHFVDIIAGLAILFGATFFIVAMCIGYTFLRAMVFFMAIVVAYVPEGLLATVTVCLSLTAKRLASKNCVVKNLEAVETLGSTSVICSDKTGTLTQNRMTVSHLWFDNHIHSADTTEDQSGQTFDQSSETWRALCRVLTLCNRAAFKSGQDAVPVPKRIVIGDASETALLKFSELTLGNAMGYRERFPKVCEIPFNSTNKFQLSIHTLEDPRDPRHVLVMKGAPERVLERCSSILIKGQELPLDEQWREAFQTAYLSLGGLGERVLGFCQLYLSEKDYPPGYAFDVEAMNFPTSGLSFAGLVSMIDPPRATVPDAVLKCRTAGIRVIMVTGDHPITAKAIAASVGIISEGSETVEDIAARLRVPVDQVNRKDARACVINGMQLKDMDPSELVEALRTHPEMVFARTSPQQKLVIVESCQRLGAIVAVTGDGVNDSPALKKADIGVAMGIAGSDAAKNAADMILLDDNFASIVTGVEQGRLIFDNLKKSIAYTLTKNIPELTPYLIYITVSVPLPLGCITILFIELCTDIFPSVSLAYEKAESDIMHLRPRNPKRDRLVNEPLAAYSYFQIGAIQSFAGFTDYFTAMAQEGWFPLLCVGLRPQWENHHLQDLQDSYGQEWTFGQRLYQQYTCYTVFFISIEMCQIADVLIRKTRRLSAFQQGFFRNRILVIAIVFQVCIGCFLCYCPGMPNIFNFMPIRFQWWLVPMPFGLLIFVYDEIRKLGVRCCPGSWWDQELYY
Sequence (P18434 whole entry partner): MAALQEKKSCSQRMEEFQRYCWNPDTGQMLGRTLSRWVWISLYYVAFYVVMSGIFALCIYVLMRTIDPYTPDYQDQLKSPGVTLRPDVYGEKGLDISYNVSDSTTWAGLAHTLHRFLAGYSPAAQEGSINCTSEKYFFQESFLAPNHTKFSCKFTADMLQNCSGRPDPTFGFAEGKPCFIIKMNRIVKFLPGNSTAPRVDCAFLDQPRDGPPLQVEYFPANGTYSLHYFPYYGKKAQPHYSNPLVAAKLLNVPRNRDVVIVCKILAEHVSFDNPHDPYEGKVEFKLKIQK
Test: Inhibition against the activity of H^+ -K^+ ATPase
Conditions: 40 mM Tris-HCl pH 7.40, 37° C., 30 minutes incubation
Description: Prepared from the fundic-glands of a fresh mucous membrane of a pig stomach according to a modified method of Saccomani al. (see Biochem. and Biophys. Acta, 464; 313 (1977)). […] After 10 minutes, the amount of the released inorganic phosphoric acid was determined according to the method of Yoda and Hokin (see Biochem. Biophys. Res. Com., 40, 880 (1970)). […]
pIC50: −log10 of the molar value.
Could you label it MET if measured pIC50 is 6 or higher, and NOT MET otherwise?

Form field: pIC50 at least 6? Entry: Cc1c(OCCN2CCCC2=O)ccnc1C[S+]([O-])c1nc2cc(C(F)(F)F)ccc2[nH]1 (centres unmarked)
NOT MET

Form field: pIC50 at least 6? Entry: COCCOCCOc1ccnc(C[S+]([O-])c2nc3cc(C(F)(F)F)ccc3[nH]2)c1C (centres unmarked)
MET

Form field: pIC50 at least 6? Entry: Cc1c(OCCCO)ccnc1C[S+]([O-])c1nc2ccccc2[nH]1 (centres unmarked)
NOT MET

Form field: pIC50 at least 6? Entry: Cc1c(OCCOCCOCc2ccccc2)ccnc1C[S+]([O-])c1nc2ccccc2[nH]1 (centres unmarked)
NOT MET

Form field: pIC50 at least 6? Entry: COCCOCCOc1ccnc(C[S+]([O-])c2nc3cc(OC)ccc3[nH]2)c1C (centres unmarked)
NOT MET

Form field: pIC50 at least 6? Entry: Cc1c(OCCN2C(=O)CCC2=O)ccnc1C[S+]([O-])c1nc2cc(C(F)(F)F)ccc2[nH]1 (centres unmarked)
MET

Form field: pIC50 at least 6? Entry: Cc1c(OCCO)ccnc1C[S+]([O-])c1nc2ccccc2[nH]1 (centres unmarked)
NOT MET

Form field: pIC50 at least 6? Entry: COc1ccc2[nH]c([S+]([O-])Cc3nccc(OCCN4CCCC4=O)c3C)nc2c1 (centres unmarked)
NOT MET

Form field: pIC50 at least 6? Entry: COc1ccc2[nH]c([S+]([O-])Cc3nccc(OCCOCCOCc4ccccc4)c3C)nc2c1 (centres unmarked)
NOT MET

Form field: pIC50 at least 6? Entry: COc1ccc2[nH]c([S+]([O-])Cc3nccc(OCCO)c3C)nc2c1 (centres unmarked)
NOT MET

Form field: pIC50 at least 6? Entry: COCCOCCOc1ccnc(C[S+]([O-])c2nc3ccccc3[nH]2)c1C (centres unmarked)
NOT MET

Form field: pIC50 at least 6? Entry: COCCCOc1ccnc(C[S+]([O-])c2nc3ccccc3[nH]2)c1C (centres unmarked)
NOT MET

====

Would you mind telling me the reported pIC50 of each entry?
Biological target: H^+ -K^+ ATPase (Sus scrofa)
Construct: Prepared from the fundic-glands of a fresh mucous membrane of a pig stomach
Assay: Inhibition against the activity of H^+ -K^+ ATPase
Settings: 40 mM Tris-HCl pH 7.40, 37° C., 30 minutes incubation
Would you please state pIC50, meaning minus log10 of the concentration in mol/L, as a bare number?

# assay system H^+ -K^+ ATPase (Sus scrofa): give pIC50 of Cc1c(OCCOCc2ccccc2)ccnc1C[S+]([O-])c1nc2ccccc2[nH]1 (centres unmarked) [Compound 1]
6.04

# assay system H^+ -K^+ ATPase (Sus scrofa): give pIC50 of Cc1c(OCCOCCCl)ccnc1C[S+]([O-])c1nc2ccccc2[nH]1 (centres unmarked) [Compound 23]
5.85

# assay system H^+ -K^+ ATPase (Sus scrofa): give pIC50 of Cc1c(OCCOCc2ccccc2)ccnc1C[S+]([O-])c1nc2cc(C(F)(F)F)ccc2[nH]1 (centres unmarked) [Compound 3]
6.00

# assay system H^+ -K^+ ATPase (Sus scrofa): give pIC50 of Cc1c(OCCOc2ccccc2)ccnc1C[S+]([O-])c1nc2ccccc2[nH]1 (centres unmarked) [Compound 21]
5.89

# assay system H^+ -K^+ ATPase (Sus scrofa): give pIC50 of COc1ccc2[nH]c([S+]([O-])Cc3nccc(OCCOCc4ccccc4)c3C)nc2c1 (centres unmarked) [Compound 2]
5.85
